Molecular target: furin, P09958;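 further: purified furin at 1:10 enzyme:substrate in 50 mM HEPES pH 7.5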
Sequence (P09958 whole entry): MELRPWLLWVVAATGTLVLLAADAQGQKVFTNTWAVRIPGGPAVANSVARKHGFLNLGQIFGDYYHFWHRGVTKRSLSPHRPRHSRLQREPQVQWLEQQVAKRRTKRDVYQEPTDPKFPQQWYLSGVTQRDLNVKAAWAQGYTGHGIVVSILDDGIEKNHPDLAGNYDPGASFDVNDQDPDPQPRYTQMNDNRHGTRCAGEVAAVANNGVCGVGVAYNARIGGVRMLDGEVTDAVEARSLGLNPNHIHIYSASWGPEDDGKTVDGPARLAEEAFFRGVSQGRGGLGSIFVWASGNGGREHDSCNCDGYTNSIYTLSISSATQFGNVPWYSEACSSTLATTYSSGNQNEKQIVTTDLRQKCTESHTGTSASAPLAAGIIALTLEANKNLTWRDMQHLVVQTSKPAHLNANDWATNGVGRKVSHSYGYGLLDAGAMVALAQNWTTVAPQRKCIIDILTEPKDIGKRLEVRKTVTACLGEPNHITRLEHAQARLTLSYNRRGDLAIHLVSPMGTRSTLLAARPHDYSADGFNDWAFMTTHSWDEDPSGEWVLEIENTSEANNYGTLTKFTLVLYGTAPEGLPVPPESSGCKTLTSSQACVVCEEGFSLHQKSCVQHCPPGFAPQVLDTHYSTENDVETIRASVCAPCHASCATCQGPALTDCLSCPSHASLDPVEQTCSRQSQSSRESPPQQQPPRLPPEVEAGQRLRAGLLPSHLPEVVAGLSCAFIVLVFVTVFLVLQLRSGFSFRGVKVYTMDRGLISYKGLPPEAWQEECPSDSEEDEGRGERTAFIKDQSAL
Assay: furin cleavage Z-score vs untreated control; higher = more cleavage, active = 3.5 or more, inactive = 1 or less, 8 variable residues between constant flanks
Conditions: 7.5 min
The other results are listed elsewhere or left out. How many sequences the whole screen found active is unknown.
Labels: yes for active, no for inactive

1) CAYPYRLWHYAGNASASA [HC466] ... no
2) CAVPQSFQVAAGNASASA [HC770] ... no
3) CAHPQRSKKAAGNASASA [FS-248] ... no
4) CAMEECSVHLAGNASASA [HC1730] ... no
5) CAPSQRSKRPAGNASASA [FS-477] ... no
6) CATQQRSKRAAGNASASA [FS-1496] ... yes
7) CAMEECDQHLAGNASASA [HC32] ... no
8) CARMRRYADAAGNASASA [FS-2355] ... yes
9) CAVVCCSMTYAGNASASA [HC2078] ... no
10) CAVVCCSASYAGNASASA [HC2043] ... no
11) CAIITSLTGRAGNASASA [HC682] ... no
12) CARGLRSIMEAGNASASA [FS-1709] ... no
13) CALHEYPVGSAGNASASA [HC1236] ... no
14) CAAPGERPSGAGNASASA [HC912] ... no
15) CAGWLRSKKAAGNASASA [FS-1530] ... no
16) CARMMRPVSDAGNASASA [FS-1753] ... no
17) CAEYTTPCSGAGNASASA [HC1969] ... no
18) CASTPCSAHLAGNASASA [HC2477] ... no
19) CAGIVPAKSVAGNASASA [HC408] ... no
20) CAEHTTPCSGAGNASASA [HC1975] ... no
21) CARDQRDKDGAGNASASA [FS-2412] ... no
22) CAQKVRPRRWAGNASASA [FS-80] ... yes
23) CARDVRSRRPAGNASASA [FS-1393] ... no
24) CATQTVDFSLAGNASASA [HC890] ... no
25) CAFRNRNQRIAGNASASA [FS-235] ... no
26) CAVTQRSKRAAGNASASA [FS-388] ... yes
27) CAETKRSINEAGNASASA [FS-2539] ... no
28) CARIRRMADAAGNASASA [FS-2339] ... yes
29) CARAVRSINEAGNASASA [FS-2411] ... yes
